- System: Philasterides dicentrarchi
- Assay Name: microbe, parasite or virus in culture
- Stated Conditions: 100 μM, 24 h, culture medium, mean ± SD of three replicates
Param threshold (70%) applies to Growth Inhibition 24 h (%); output true when value >= threshold, false when value < threshold.

Previously resolved entries follow.
# Compound, Target Entity, Category Label
rows = [
    ("O=C(/C=C/C=C/c1ccc2c(c1)OCO2)N1CCCCC1", "Philasterides dicentrarchi", "true"),
    ("CC(O)C(=O)[O-].[Na+] (centres unmarked) [Sodium lactate]", "Philasterides dicentrarchi", "false"),
    ("CC1=NCCc2c1[nH]c1cc(O)ccc21.Cl.O.O [Harmalol hydrochloride dihydrate]", "Philasterides dicentrarchi", "false"),
    ("C[C@H]1[C@H]2CC[C@H]3[C@@H]4CC=C5C[C@@H](N(C)C)CC[C@]5(C)[C@H]4CC[C@]23CN1C", "Philasterides dicentrarchi", "true"),
    ("C[C@H]1C(=O)O[C@@H]2CCN3CC=C(COC(=O)[C@](C)(O)[C@]1(C)O)[C@H]23", "Philasterides dicentrarchi", "false"),
    ("CCCCOC(=O)c1ccc(O)cc1 [Butyl 4-hydroxybenzoate]", "Philasterides dicentrarchi", "true"),
]

For the next question, use this compound.
Query: Growth Inhibition 24 h (%) >= 70% for CC12CCC(CC1=O)C2(C)C (centres unmarked) ?
Reply: true

###

- Assay Name: Toxicity to EPC cell line, MTT assay
- Type: cell-based, fish
- Stated Conditions: fish
Quantity Name: viability at 3 h (%)
// note: answer is a bare numeric in %

Query: Answer with the recorded viability at 3 h of O=C(/C=C/c1ccccc1)c1ccc(O)cc1O [2′,4′-dihydroxychalcone] only.
Reply: 92

###

Measured inhibition at 100 µM of individual entries
- Tested on: Philasterides dicentrarchi
- Assay Name: microbe, parasite or virus in culture
- Stated Conditions: Philasterides dicentrarchi, 24 h, read-out: Growth Inhibition 24 h (%), 100 μM, 24 h, culture medium, mean ± SD of three replicates
- Procedure: […] The anticiliate activity was assayed as previously described, with minor modifications. […] The effects of the compounds on the motility and morphology of the ciliates were monitored periodically (at 30 min, 1, 2, 3, 24, and 48 h) under an inverted optical microscope. […] The results obtained are expressed as percentage mortality for each experimental group. […] The values were then calculated from the equation log GI50 = (50 − b)/m, where m is the slope y1 − y2/x1 − x2, and b is the intercept of the line.

# annotated cases, reported inhibition at 100 µM shown
# Molecule, Reported Result
data = [
    ("CCCCOC(=O)c1ccc(O)cc1 [Butyl 4-hydroxybenzoate]", "> 80%"),
    ("O=C(/C=C/C=C/c1ccc2c(c1)OCO2)N1CCCCC1", "> 80%"),
]

Now let's try a different one.
Query: Answer with the recorded inhibition at 100 µM of `C[C@H]1[C@H]2CC[C@H]3[C@@H]4CC=C5C[C@@H](N(C)C)CC[C@]5(C)[C@H]4CC[C@]23CN1C` only.
Reply: > 80%
